Tested on: COS-1 cells
Experiment: LDH assay (necrosis)
Assay type: cell-based
Conditions: 30 µM
Entries annotated with measured LDH.30µM
RECORDED METRIC: LDH.30µM

[[record]]
compound = "CCC(=O)N(Cc1ccc(N(CC)CC)cc1)c1c(-c2ccccc2)noc1C"
recorded_value = 1.47

[[record]]
compound = "CCN(CC)c1ccc(NC(=O)c2c(-c3ccccc3)nnn2CCc2ccccc2)cc1"
recorded_value = 1.31

[[record]]
compound = "CCN(CC)c1ccc(NCc2c[nH]nc2-c2cc(F)cc(F)c2)cc1"
recorded_value = -0.35

[[record]]
compound = "CCN(CC)c1ccc(CNc2c(-c3ccccc3)noc2C)cc1"
recorded_value = 0.31

[[record]]
compound = "CCN(CC)c1ccc(NC(=O)c2snnc2-c2ccccc2)cc1 [Compound 47n]"
recorded_value = 1.71

[[record]]
compound = "CCN(CC)c1ccc(CN(C(=O)C(F)(F)F)c2c(-c3ccccc3)noc2C)cc1 [Compound 30c]"
recorded_value = -1.08

[[record]]
compound = "Cc1onc(-c2ccccc2)c1COc1ccc(C(=O)OCCC#N)cc1 [Compound 35a]"
recorded_value = 1

[[record]]
compound = "COc1ccc(-c2cc(NC(=O)c3ccc(C(C)(C)C)cc3)n[nH]2)cc1"
recorded_value = -0.27


----------
Target: GATA4 transcriptional activity (Mus musculus, UniProt Q08369)
Construct: expressed in transfected cells; host or cells: COS-1
Sequence (Q08369 whole entry): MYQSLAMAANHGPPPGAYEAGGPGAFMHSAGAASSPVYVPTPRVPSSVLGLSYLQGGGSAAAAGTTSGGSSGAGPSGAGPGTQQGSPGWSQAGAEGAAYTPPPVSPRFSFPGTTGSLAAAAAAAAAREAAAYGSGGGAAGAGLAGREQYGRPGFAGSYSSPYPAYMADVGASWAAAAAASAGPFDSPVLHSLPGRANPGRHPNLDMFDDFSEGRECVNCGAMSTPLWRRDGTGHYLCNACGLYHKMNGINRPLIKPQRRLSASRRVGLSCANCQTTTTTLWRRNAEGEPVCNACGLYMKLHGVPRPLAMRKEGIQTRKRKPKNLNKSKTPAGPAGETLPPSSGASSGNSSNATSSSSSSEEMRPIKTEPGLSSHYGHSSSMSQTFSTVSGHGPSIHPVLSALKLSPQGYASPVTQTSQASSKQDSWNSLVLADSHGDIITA
Experiment: GATA4 luciferase reporter assay (tandem GATA-site reporter, COS-1 cells)
Assay type: cell-based
Conditions: COS-1; 3 µM; luciferase reporter activity relative to control
RECORDED METRIC: activity at 3 µM

[[record]]
compound = "CCC(OC)c1ccc(OCc2c(-c3ccccc3)noc2C)cc1 (racemic) [Compound 34e]"
recorded_value = "101%"

[[record]]
compound = "CCN(CC)c1ccc(/C=N/c2c(-c3ccccc3)noc2C)c(O)c1 [SI44]"
recorded_value = "107%"

[[record]]
compound = "COc1ccc(-c2cc(N)nn2C(=O)c2c(-c3ccccc3)noc2C)cc1 [SI137]"
recorded_value = "85.3%"

[[record]]
compound = "CCN(CC)c1ccc(NC(=O)c2cnc3ncccn23)cc1 [Compound 47aa]"
recorded_value = "108%"

[[record]]
compound = "Cc1onc(-c2ccccc2)c1COc1ccc(C(=O)OCCC#N)cc1 [Compound 35a]"
recorded_value = "46.9%"

[[record]]
compound = "CC(=O)N(Cc1ccc(N(C)C)cc1)c1c(-c2ccccc2)noc1C [Compound 64]"
recorded_value = "59.6%"


----------
Entries annotated with measured activity at 10 µM
Target: GATA4–NKX2-5 transcriptional synergy (Mus musculus, UniProt P42582+Q08369)
Construct: expressed in transfected cells; host or cells: COS-1
Sequence (Q08369 whole entry): as above
Sequence (P42582 whole entry): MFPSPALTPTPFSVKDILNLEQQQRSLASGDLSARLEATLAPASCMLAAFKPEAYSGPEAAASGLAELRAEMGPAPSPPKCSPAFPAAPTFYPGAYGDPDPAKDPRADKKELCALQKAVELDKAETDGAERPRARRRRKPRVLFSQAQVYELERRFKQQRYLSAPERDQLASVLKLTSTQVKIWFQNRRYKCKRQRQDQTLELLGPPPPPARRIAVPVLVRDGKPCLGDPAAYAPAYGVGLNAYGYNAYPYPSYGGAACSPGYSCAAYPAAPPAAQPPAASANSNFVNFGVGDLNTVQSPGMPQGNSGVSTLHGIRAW
Test: GATA4–NKX2-5 transcriptional synergy luciferase reporter assay (3xNKE reporter, COS-1 cells)
Assay type: cell-based
Conditions: COS-1; 10 µM; luciferase reporter activity relative to control
RECORDED METRIC: activity at 10 µM

[[record]]
compound = "CCN(CC)c1ccc(/C=N/c2c(-c3ccccc3)noc2C)c(O)c1"
target = "GATA4–NKX2-5 transcriptional synergy (Mus musculus, UniProt P42582+Q08369)"
recorded_value = "53.2%"

[[record]]
compound = "CCN(CC)c1ccc(NC(=O)c2cc(C)oc2-c2ccccc2)cc1"
target = "GATA4–NKX2-5 transcriptional synergy (Mus musculus, UniProt P42582+Q08369)"
recorded_value = "35.4%"

[[record]]
compound = "CCN(CC)c1ccc(NCc2c[nH]nc2-c2cc(F)cc(F)c2)cc1"
target = "GATA4–NKX2-5 transcriptional synergy (Mus musculus, UniProt P42582+Q08369)"
recorded_value = "92.2%"

[[record]]
compound = "CC[N+](O)(CC)c1ccc(NC(=O)c2c(-c3ccccc3)noc2C)cc1"
target = "GATA4–NKX2-5 transcriptional synergy (Mus musculus, UniProt P42582+Q08369)"
recorded_value = "93.6%"

[[record]]
compound = "CCN(CC)c1ccc(NC(=O)c2c[nH]nc2-c2ccccc2)cc1"
target = "GATA4–NKX2-5 transcriptional synergy (Mus musculus, UniProt P42582+Q08369)"
recorded_value = "93.5%"

[[record]]
compound = "CN(C)c1ccc(NCc2c[nH]nc2-c2ccc(F)cc2)cc1"
target = "GATA4–NKX2-5 transcriptional synergy (Mus musculus, UniProt P42582+Q08369)"
recorded_value = "42.2%"

[[record]]
compound = "CCC(=O)N(Cc1ccc(N(CC)CC)cc1)c1c(-c2ccccc2)noc1C"
target = "GATA4–NKX2-5 transcriptional synergy (Mus musculus, UniProt P42582+Q08369)"
recorded_value = "22.3%"

[[record]]
compound = "CCN(CC)c1ccc(NC(=O)c2c(-c3ccccc3)nnn2CCc2ccccc2)cc1"
target = "GATA4–NKX2-5 transcriptional synergy (Mus musculus, UniProt P42582+Q08369)"
recorded_value = "33%"

[[record]]
compound = "CCN(CC)c1ccc(NC(=O)c2cnc3ncccn23)cc1 [Compound 47aa]"
target = "GATA4–NKX2-5 transcriptional synergy (Mus musculus, UniProt P42582+Q08369)"
recorded_value = "144%"

